The measurements presented in this section are drawn from patent US11839613B2.

# experimental.system: EP2 (Homo sapiens (Human))
# Sequence (P43116 whole entry): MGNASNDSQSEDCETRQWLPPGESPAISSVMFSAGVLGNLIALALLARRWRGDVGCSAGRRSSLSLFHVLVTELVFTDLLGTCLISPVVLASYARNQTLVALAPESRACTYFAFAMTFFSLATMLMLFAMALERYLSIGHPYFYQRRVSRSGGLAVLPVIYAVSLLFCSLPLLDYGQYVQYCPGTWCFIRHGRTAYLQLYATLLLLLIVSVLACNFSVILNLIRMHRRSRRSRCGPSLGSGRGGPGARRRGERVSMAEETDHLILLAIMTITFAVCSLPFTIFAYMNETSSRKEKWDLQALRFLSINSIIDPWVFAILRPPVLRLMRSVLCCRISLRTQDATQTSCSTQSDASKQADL
# method.description: hEP2 cAMP assay (SF295 glioblastoma cells, HTRF cAMP)
# experimental.setup: antagonistic activity
pIC50: −log10 of the molar value.

smiles.notation	value.operator	pIC50
COc1cc2c(cc1CCNc1cc(-c3ccc4cc(C(=O)O)oc4c3)ncn1)OCCO2	=	6.91
COc1cc2sccc2cc1CCNc1cc(-c2ccc(C(=O)O)cc2)ncn1	=	7.33
CCOc1cc(-c2cc(NCCc3cc4ccoc4cc3F)ncn2)sc1C(=O)O	=	7.82
CCOc1cc(-c2cc(NCCc3c(OC)cc4occc4c3C)ncn2)ccc1C(=O)O	=	8.70
CCOc1cc(-c2cc(NCCc3ccc4c(c3)OCCC4)ncn2)ccc1C(=O)O	<	4.56

----------
# experimental.system: PTGER4 (EP4) (Homo sapiens (Human))
# Sequence (P35408 whole entry): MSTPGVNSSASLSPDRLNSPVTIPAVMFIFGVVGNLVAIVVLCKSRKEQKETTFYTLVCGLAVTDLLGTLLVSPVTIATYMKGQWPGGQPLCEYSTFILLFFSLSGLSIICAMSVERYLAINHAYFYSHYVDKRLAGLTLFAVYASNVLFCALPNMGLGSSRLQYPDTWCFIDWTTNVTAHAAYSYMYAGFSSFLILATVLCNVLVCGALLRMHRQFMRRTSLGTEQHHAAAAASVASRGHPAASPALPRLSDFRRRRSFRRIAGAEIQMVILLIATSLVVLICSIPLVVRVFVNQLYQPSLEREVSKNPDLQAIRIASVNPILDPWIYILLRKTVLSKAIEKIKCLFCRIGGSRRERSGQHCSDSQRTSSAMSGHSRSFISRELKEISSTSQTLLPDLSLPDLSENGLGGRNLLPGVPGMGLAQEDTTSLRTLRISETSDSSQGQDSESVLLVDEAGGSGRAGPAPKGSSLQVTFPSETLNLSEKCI
# method.description: cell-based
pIC50: −log10 of the molar value.
Please note: MET applies when pIC50 is 7 or greater, and NOT MET applies otherwise.

compound	experimental.system	class
Cc1c(CCNc2cc(-c3ccc(C(=O)O)c(OC4CCC4)c3)ncn2)ccc2ccsc12 [Example 471]	PTGER4 (EP4) (Homo sapiens (Human))	NOT MET
COc1cc(-c2cc(NCCc3c(OC)cc4ccccc4c3C)ncn2)ccc1CC(=O)O [Example 384]	PTGER4 (EP4) (Homo sapiens (Human))	MET
CCOc1cc2c(cc1CCNc1cc(-c3ccc(C(=O)O)c(OC4CCC4)c3)ncn1)OCCO2 [Ex 196]	PTGER4 (EP4) (Homo sapiens (Human))	NOT MET
O=C(O)c1ccc(-c2cc(NCCc3cc(F)c4sccc4c3)ncn2)c2cc[nH]c12 [Example 558]	PTGER4 (EP4) (Homo sapiens (Human))	NOT MET
CCCOc1cc(-c2cc(NCCc3ccc4sccc4c3F)ncn2)ccc1CC(=O)O [Example 393]	PTGER4 (EP4) (Homo sapiens (Human))	NOT MET
Fc1cc(CCNc2cc(-c3ccc4[nH]ccc4c3)ncn2)cc2ccsc12 [Example 539]	PTGER4 (EP4) (Homo sapiens (Human))	NOT MET
CCOc1c(CC(=O)O)ccc(-c2cc(NCCc3cc(F)c4sccc4c3)ncn2)c1F [Example 564]	PTGER4 (EP4) (Homo sapiens (Human))	NOT MET
CCOc1cc2c(cc1CCNc1cc(-c3cc(OCC)c(C(=O)O)s3)ncn1)OCCO2 [Ex 39]	PTGER4 (EP4) (Homo sapiens (Human))	MET
COc1cc(-c2cc(NCCc3ccc4c(c3C)OCCO4)ncn2)ccc1OCCC(=O)O [Example 507]	PTGER4 (EP4) (Homo sapiens (Human))	NOT MET
Cc1c(CCNc2cc(-c3ccc(C(=O)O)c(OC4CC4)c3)ncn2)ccc2c1OCCO2 [Example 519]	PTGER4 (EP4) (Homo sapiens (Human))	NOT MET
CSc1cc(-c2cc(NCCc3ccc4ccoc4c3)ncn2)ccc1C(=O)O [Ex 250]	PTGER4 (EP4) (Homo sapiens (Human))	NOT MET
COc1cc2c(cc1CCNc1cc(-c3ccc(C(=O)O)c(SC)c3)ncn1)OCO2 [Ex 277]	PTGER4 (EP4) (Homo sapiens (Human))	NOT MET
CCOc1cc(-c2cc(NCCc3cc(F)c4sccc4c3)ncn2)sc1CCC(=O)O [Example 535]	PTGER4 (EP4) (Homo sapiens (Human))	MET
O=C(O)c1n[nH]c2cc(-c3cc(NCCc4cc(F)c5sccc5c4)ncn3)ccc12 [Example 562]	PTGER4 (EP4) (Homo sapiens (Human))	NOT MET
CCOc1cc(-c2cc(NCCc3cc4ccoc4cc3F)ncn2)ccc1CC(=O)O [Ex 195]	PTGER4 (EP4) (Homo sapiens (Human))	NOT MET
CCOc1cc(-c2cc(NCCc3cc4sccc4cc3OC)ncn2)ccc1C(=O)O [Ex 218]	PTGER4 (EP4) (Homo sapiens (Human))	NOT MET
CCOc1cc(-c2cc(NCCc3c(OCC)cc4ccccc4c3C)ncn2)ccc1C(=O)O [Example 418]	PTGER4 (EP4) (Homo sapiens (Human))	MET
CCOc1cc(-c2cc(NCCc3ccc4ccccc4c3C)ncn2)ccc1NCC(=O)O [Ex 205]	PTGER4 (EP4) (Homo sapiens (Human))	MET
COc1cc(-c2cc(NCCc3cc(F)c4sccc4c3)ncn2)ccc1C(=O)O [Example 497]	PTGER4 (EP4) (Homo sapiens (Human))	NOT MET
COc1cc2c(c(C)c1CCNc1cc(-c3ccc(C(=O)O)c(SC)c3)ncn1)OCCO2 [Example 400]	PTGER4 (EP4) (Homo sapiens (Human))	MET
CCSc1cc(-c2cc(NCCc3c(F)cc4ncccc4c3F)ncn2)ccc1C(=O)O [Ex 153]	PTGER4 (EP4) (Homo sapiens (Human))	NOT MET
CCOc1cc(-c2cc(NCCc3ccc4ccn(C)c4c3)ncn2)sc1C(=O)O [Ex 42]	PTGER4 (EP4) (Homo sapiens (Human))	MET
CCCc1cc(-c2cc(NCCc3cc4c(cc3F)OCCO4)ncn2)ccc1CC(=O)O [Example 528]	PTGER4 (EP4) (Homo sapiens (Human))	NOT MET
